- System: MDA-MB-468 cells
- particulars: 48 h
*1 amine or outer side, *2 acyl side, *3 side chain or, on linkers, in order; H or OH if unused. Where a SMILES comes first, the peptide text is derived from it. [ ]: non-standard residue; d: D form. The star is where a group is joined. NMe2Val = CC(C)[C@@H](C(=O)*)N(C)C; X1 = O=C(CN(Cc1cncs1)[*:1])[*:2]; NMeV = CN[C@H](C(=O)O)C(C)C; X2 = O=C(NCCCCN*)OCc1ccccc1; Nphe = O=C(O)CNCc1ccccc1; NHBu = CCCCN*
measuredQuantity: IC50 (nM)
Number only, in nM; omit the unit.

compound="CC(C)[C@H](NC(=O)[C@H](C(C)C)N(C)C)C(=O)N(C)[C@H](C(=O)N1CCC[C@H]1C(=O)N1CCC[C@H]1C(=O)N(CC(=O)NCCCCNC(=O)OCc1ccccc1)Cc1ccccc1)C(C)C [Peptide 5e] (NMe2Val-V[NMeV]PP[Nphe]-X2)" resultunits=nM val=1200

Read the next record carefully.
State, in one line, measured IC50 of CCCCNC(=O)CN(Cc1cncs1)C(=O)[C@@H]1CCCN1C(=O)[C@@H]1CCCN1C(=O)[C@H](C(C)C)N(C)C(=O)[C@@H](NC(=O)[C@H](C(C)C)N(C)C)C(C)C [Peptide 5h] (NMe2Val-V[NMeV]PP[X1]-NHBu)
24
